# ASSAY: Clearance in Sprague-Dawley rat at 2 mg/kg, iv administered as single dose
# Format: ADME, organism-based
# CONDITION LABEL: in vivo
QUANTITY: clearance (mL/min/kg)
The response must be a number in mL/min/kg with no trailing unit.

Please list clearance recorded for the compound Cc1noc(C)c1-c1ccc2c(c1)O[C@H](CC1CC1)C(=O)N2
33.9

###

# ASSAY: Tmax in Sprague-Dawley rat at 2 mg/kg, iv administered as single dose
# Format: ADME, organism-based
# CONDITION LABEL: in vivo
QUANTITY: Tmax (min)
The response must be a number in min with no trailing unit.

Please list Tmax recorded for the molecule Cc1noc(C)c1-c1ccc2c(c1)O[C@H](CC1CC1)C(=O)N2
4.8
